Reference for the values: patent US20030236190A1

molecular target: human insulin receptor (HIR) (human, UniProt P06213 28-1382, limits assumed); experiment: 125I-insulin competition, solubilised HIR
Non-standard residues stand in square brackets, D forms with d. No end group written: not given here. Tyr(3-I) = N[C@@H](Cc1ccc(O)c(I)c1)C(=O)O
Readout name: Kd (pM)

Binder: SLEEEWAQVECEVYGRGCPPGLLDESFYHWFDRQLR [S553]
Endpoint result: 7.3

Binder: SIEEEWAQIKCDVWGRGCPPGLLDESFYHWFDRQLR [S520]
Endpoint result: 20

Binder: LEEEWAQIECEV[Tyr(3-I)]GRGCSGSLDESFYDWFERQLG (cysteine pairing not given here) [S590]
Endpoint result: 58

Binder: SLEEEWAQIECEVWGRGCSESFYDWFERQL [S559]
Endpoint result: 21

Binder: LDQEAAWVQCEVYGRGCPSESFYDWFERQL [S498]
Endpoint result: 56000

Binder: SLEEEWAQVKCEVYGRGCPSGSLDESFYDWFERQLG [S540]
Endpoint result: 13
